The following compounds are listed with their measured inhibition at 0.1 µM values.
Target: FXIIa (Homo sapiens, UniProt P00748)
Sequence (P00748 373-615 limits assumed, other chains not shown): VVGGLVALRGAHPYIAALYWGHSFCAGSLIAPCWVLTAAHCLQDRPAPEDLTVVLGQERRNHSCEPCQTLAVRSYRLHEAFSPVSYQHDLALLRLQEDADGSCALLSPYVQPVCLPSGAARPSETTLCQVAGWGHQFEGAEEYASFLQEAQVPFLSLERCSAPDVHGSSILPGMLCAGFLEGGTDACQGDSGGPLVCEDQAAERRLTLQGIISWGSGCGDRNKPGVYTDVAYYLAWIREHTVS
Assay: Medium‐throughput screening
Assay type: biochemical
Settings: read-out: Inhibition @100 nM [in MTS] FXIIa
Hi! Could you send only the number? It should be in %, unit omitted.

* Nc1nc(-c2cnccn2)nn1C(=O)[C@H]1CCCc2ccccc21 [33 c] | 80
* Cc1nc(-c2cccs2)ccc1-c1nc(N)n(C(=O)[C@H]2CCCc3ccccc32)n1 [33 d] | 26

Form field: inhibition at 0.1 µM recorded for Nc1nc(-c2cnccn2)nn1C(=O)Cc1ccccc1I [32 c] with FXIIa (Homo sapiens, UniProt P00748) (enter value) 75

Hi! What's the reported inhibition at 0.1 µM for Nc1nc(-c2ccc(F)cc2)nn1C(=O)[C@H]1CCCc2ccccc21 [33 f] on FXIIa (Homo sapiens, UniProt P00748)? 29

What value of inhibition at 0.1 µM on FXIIa (Homo sapiens, UniProt P00748) does Nc1nc(-c2nccc3ccccc23)nn1C(=O)[C@H]1CCCc2ccccc21 [33 i] have? 14
